# procedure_summary: Plasma pharmacokinetics after multiple doses (cycle 2, steady state), LC-MS/MS
# Type: in vivo, human
# assay_conditions: human, plasma, oral, 1.25 mg, multiple dose, steady state; Schedule A (5 days on, 2 days off), 1.25 mg, n = 4; read-out: Tmax, median (range)

{"structure_smiles_string": "Cc1nnn(C)c1-c1cnc2c3ccc(C(C)(C)O)cc3n([C@H](c3ccccc3)C3CCOCC3)c2c1", "Tmax": "1.5 h"}

###

# procedure_summary: Plasma pharmacokinetics after single dose (C1D1), LC-MS/MS
# Format: in vivo, human
# assay_conditions: human, plasma, oral, 1.25 mg, cohort Schedule A, n = 3

{"compound": "Cc1nnn(C)c1-c1cnc2c3ccc(C(C)(C)O)cc3n([C@H](c3ccccc3)C3CCOCC3)c2c1 [BMS-986158]", "Cmax (ng/mL)": 175}

###

# procedure_summary: Plasma pharmacokinetics after multiple doses (cycle 2, steady state), LC-MS/MS
# Format: in vivo, human
# assay_conditions: human, plasma, oral, 2 mg, multiple dose, steady state; Schedule B (14 days on, 7 days off), 2.0 mg, n = 1; read-out: AUC(0–T), GM (%CV)
observed_property: AUC(0-t) (ng·h/mL)

{"structure_smiles_string": "Cc1nnn(C)c1-c1cnc2c3ccc(C(C)(C)O)cc3n([C@H](c3ccccc3)C3CCOCC3)c2c1", "unit_of_measurement": "ng·h/mL", "experimental_result": 6320}

###

# procedure_summary: Plasma pharmacokinetics after single dose (C1D1), LC-MS/MS
# Type: in vivo, human
# assay_conditions: human, plasma, oral, 3 mg, cohort Schedule C, 3.0 mg, n = 10, read-out: Effective T1/2, mean (SD) (converted)

{"structure_smiles_string": "Cc1nnn(C)c1-c1cnc2c3ccc(C(C)(C)O)cc3n([C@H](c3ccccc3)C3CCOCC3)c2c1", "half-life (min)": 2890}

###

# procedure_summary: Plasma pharmacokinetics after single dose (C1D1), LC-MS/MS
# Format: in vivo, human
# assay_conditions: human, plasma, oral, 3 mg, cohort Schedule A, 3.0 mg, n = 10, read-out: Tmax, median

{"molecule": "Cc1nnn(C)c1-c1cnc2c3ccc(C(C)(C)O)cc3n([C@H](c3ccccc3)C3CCOCC3)c2c1 [BMS-986158]", "Tmax (h)": 2}

###

# procedure_summary: Plasma pharmacokinetics after single dose (C1D1), LC-MS/MS
# Assay type: in vivo, human
# assay_conditions: human, plasma, oral, 3 mg, cohort Schedule B, 3.0 mg, n = 1, read-out: Vz/F, GM (%CV)

{"structure_smiles_string": "Cc1nnn(C)c1-c1cnc2c3ccc(C(C)(C)O)cc3n([C@H](c3ccccc3)C3CCOCC3)c2c1", "Vd/F / L": 15.3}

###

# procedure_summary: Plasma pharmacokinetics after multiple doses (cycle 2, steady state), LC-MS/MS
# Format: in vivo, human
# assay_conditions: human, plasma, oral, multiple doses, Schedule B; read-out: AUC(0–24), range
observed_property: AUC(0-t)

{"molecule": "Cc1nnn(C)c1-c1cnc2c3ccc(C(C)(C)O)cc3n([C@H](c3ccccc3)C3CCOCC3)c2c1 [BMS-986158]", "experimental_result": "3430 to 13300 ng·h/mL"}

###

# procedure_summary: Plasma pharmacokinetics after single dose (C1D1), LC-MS/MS
# Assay type: in vivo, human
# assay_conditions: human, plasma, oral, 4.5 mg, cohort Schedule C, 4.5 mg, n = 7, read-out: AUC(0–24), GM (%CV)
observed_property: AUC(0-t) (ng·h/mL)

{"compound": "Cc1nnn(C)c1-c1cnc2c3ccc(C(C)(C)O)cc3n([C@H](c3ccccc3)C3CCOCC3)c2c1 [BMS-986158]", "observed_property": "AUC(0-t)", "experimental_result": 7420}

The reported numbers originate from paper PMC9454848.
